Assay: Plasma pharmacokinetics of SU5416 and metabolites in Phase I patients (HPLC UV)
Format: in vivo, human
Conditions: human, in vivo, iv, 145 mg m^−2, individual patients, twice weekly i.v. infusion, dose 145 mg m^−2, cycle 2inj8
Property Label: AUC(0-t)

>>> endpoint_result("Cc1cc(C)c(/C=C2\\C(=O)Nc3ccccc32)[nH]1")
"1780 ng·h/mL"

----------
Experiment: Plasma pharmacokinetics of SU5416 and metabolites in Phase I patients (HPLC UV)
Assay type: in vivo, human
Details: human, in vivo, iv, 145 mg m^−2, individual patients, twice weekly i.v. infusion, dose 145 mg m^−2, cycle 1inj8
Property Label: AUC(0-t) (ng·h/mL)

>>> endpoint_result("Cc1cc(C)c(/C=C2\\C(=O)Nc3ccccc32)[nH]1")
4430

----------
Assay: Plasma pharmacokinetics of SU5416 and metabolites in Phase I patients (HPLC UV)
Assay type: in vivo, human
Settings: human, plasma, iv, 48 mg m^−2, individual patients, twice weekly i.v. infusion, dose 48 mg m^−2, cycle 1inj2; read-out: Cmax
Property Label: Cmax (ng/mL)

>>> endpoint_result("Cc1cc(C)c(/C=C2\\C(=O)Nc3ccccc32)[nH]1 [SU5416]")
1740

----------
Assay: Plasma pharmacokinetics of SU5416 and metabolites in Phase I patients (HPLC UV)
Format: in vivo, human
Details: human, plasma, iv, 48 mg m^−2, individual patients, twice weekly i.v. infusion, dose 48 mg m^−2, cycle 1inj2; read-out: T1/2λz (converted)
Property Label: half-life (min)

>>> endpoint_result("Cc1cc(C)c(/C=C2\\C(=O)Nc3ccccc32)[nH]1")
32.4

----------
Assay: Plasma pharmacokinetics of SU5416 and metabolites in Phase I patients (HPLC UV)
Assay type: in vivo, human
Settings: human, plasma, iv, 110 mg m^−2, individual patients, twice weekly i.v. infusion, dose 110 mg m^−2, cycle 1inj8; read-out: Cmax
Property Label: Cmax (ng/mL)

>>> endpoint_result("Cc1cc(C)c(/C=C2\\C(=O)Nc3ccccc32)[nH]1 [SU5416]")
3580

----------
Experiment: Plasma pharmacokinetics of SU5416 and metabolites in Phase I patients (HPLC UV)
Type: in vivo, human
Settings: human, plasma, iv, 65 mg m^−2, individual patients, twice weekly i.v. infusion, dose 65 mg m^−2, cycle 1inj3
Property Label: AUC(0-t) (ng·h/mL)

>>> endpoint_result("Cc1cc(C)c(/C=C2\\C(=O)Nc3ccccc32)[nH]1")
566

----------
Test: Plasma pharmacokinetics of SU5416 and metabolites in Phase I patients (HPLC UV)
Assay type: in vivo, human
Conditions: human, plasma, iv, 65 mg m^−2, individual patients, twice weekly i.v. infusion, dose 65 mg m^−2, cycle 1inj3; read-out: Vz (observed)
Property Label: Vd (L)

>>> endpoint_result("Cc1cc(C)c(/C=C2\\C(=O)Nc3ccccc32)[nH]1")
55

----------
Experiment: Plasma pharmacokinetics of SU5416 and metabolites in Phase I patients (HPLC UV)
Assay type: in vivo, human
Details: human, plasma, iv, 85 mg m^−2, individual patients, twice weekly i.v. infusion, dose 85 mg m^−2, cycle 2inj8
Property Label: AUC(0-t) (ng·h/mL)

>>> endpoint_result("Cc1cc(C)c(/C=C2\\C(=O)Nc3ccccc32)[nH]1")
1620

Source listed as paper PMC2361651.
